Entries and their IC50
tgt: human mPGES-1 (Homo sapiens, UniProt O14684)
Sequence (O14684 whole entry): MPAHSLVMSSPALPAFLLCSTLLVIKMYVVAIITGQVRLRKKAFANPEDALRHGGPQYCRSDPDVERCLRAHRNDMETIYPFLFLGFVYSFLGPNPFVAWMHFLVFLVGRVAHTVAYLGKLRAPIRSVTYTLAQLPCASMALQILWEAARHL

Example entries begin here.
[[record]]
compound = "NS(=O)(=O)c1cc(CO)ccc1NS(=O)(=O)CCc1ccc(Cl)cc1OCCc1ccccc1 [Example 10]"
reportedproperty = "IC50"
result = "7.97 nM"

[[record]]
compound = "Cn1ccc2c(CCOc3cc(Cl)ccc3CCS(=O)(=O)Nc3ccccc3S(N)(=O)=O)cccc21 [Example 8]"
reportedproperty = "IC50"
result = "7.3 nM"


Entry COc1ccccc1CCOc1cc(Cl)ccc1CCS(=O)(=O)Nc1ccccc1S(N)(=O)=O [Example 2] — recorded IC50 = 3.7 nM

Entry N#Cc1cccc(CCOc2cc(Cl)ccc2CCS(=O)(=O)Nc2ccccc2S(N)(=O)=O)c1 [Example 6] — recorded IC50 = 13.6 nM

----------
System: mPGES-1-dependent PGE2 production in human blood
experimentSummary: Whole blood assay (LPS-stimulated human blood, PGE2 production)
Assay type: cell-based
experimentalParameters: 0.1 μg/ml LPS, 16 hours, 37° C., PGE2 by HTRF, read-out: hWBA
IC50 vs 50 nM: less than gives class 1; not less than gives class 0.

Past entries and their recorded results:
[[record]]
querysmiles = "N#Cc1cccc(CCOc2cc(Cl)ccc2CCS(=O)(=O)Nc2ccccc2S(N)(=O)=O)c1"
labelclass = "class 0"

[[record]]
querysmiles = "NS(=O)(=O)c1cc(CO)ccc1NS(=O)(=O)CCc1ccc(Cl)cc1OCCc1ccccc1"
labelclass = "class 1"


IN: Given the entry `NS(=O)(=O)c1ccccc1NS(=O)(=O)CCc1ccc(Cl)cc1OCCc1cccc2c1CC(=O)N2` , would its reported IC50 be below 50 nM?
OUT: class 0

IN: Given the entry `Cn1ccc2c(CCOc3cc(Cl)ccc3CCS(=O)(=O)Nc3ccccc3S(N)(=O)=O)cccc21` , would its reported IC50 be below 50 nM?
OUT: class 1

IN: Given the entry `N#Cc1ccc(CCOc2cc(Cl)ccc2CCS(=O)(=O)Nc2ccccc2S(N)(=O)=O)cc1` , would its reported IC50 be below 50 nM?
OUT: class 0

----------
System: mPGES-1-dependent PGE2 production in human blood
experimentSummary: Whole blood assay (LPS-stimulated human blood, PGE2 production)
Type: cell-based
experimentalParameters: 0.1 μg/ml LPS, 16 hours, 37° C., PGE2 by HTRF, read-out: hWBA
Entries and their pIC50
pIC50 is a log-scale quantity: -log10 of the concentration expressed in molar.

Example entries begin here.
[[record]]
compound = "COc1ccccc1CCOc1cc(Cl)ccc1CCS(=O)(=O)Nc1ccccc1S(N)(=O)=O [Example 2]"
reportedproperty = "pIC50"
numericreadout = 8.47

[[record]]
compound = "N#Cc1ccccc1CCOc1cc(Cl)ccc1CCS(=O)(=O)Nc1ccccc1S(N)(=O)=O [Example 5]"
reportedproperty = "pIC50"
numericreadout = 7.98

[[record]]
compound = "COc1cccc(CCOc2cc(Cl)ccc2CCS(=O)(=O)Nc2ccccc2S(N)(=O)=O)c1 [Example 3]"
reportedproperty = "pIC50"
numericreadout = 7.05


Continue with the next compound.
Entry COc1ccc(CCOc2cc(Cl)ccc2CCS(=O)(=O)Nc2ccccc2S(N)(=O)=O)cc1 [Example 4] — recorded pIC50 = 7.15
